Target: Ubiquitin carboxyl-terminal hydrolase 1/WD repeat-containing protein 48 (Homo sapiens, UniProt O94782+Q8TAF3)
Sequence (O94782 whole entry): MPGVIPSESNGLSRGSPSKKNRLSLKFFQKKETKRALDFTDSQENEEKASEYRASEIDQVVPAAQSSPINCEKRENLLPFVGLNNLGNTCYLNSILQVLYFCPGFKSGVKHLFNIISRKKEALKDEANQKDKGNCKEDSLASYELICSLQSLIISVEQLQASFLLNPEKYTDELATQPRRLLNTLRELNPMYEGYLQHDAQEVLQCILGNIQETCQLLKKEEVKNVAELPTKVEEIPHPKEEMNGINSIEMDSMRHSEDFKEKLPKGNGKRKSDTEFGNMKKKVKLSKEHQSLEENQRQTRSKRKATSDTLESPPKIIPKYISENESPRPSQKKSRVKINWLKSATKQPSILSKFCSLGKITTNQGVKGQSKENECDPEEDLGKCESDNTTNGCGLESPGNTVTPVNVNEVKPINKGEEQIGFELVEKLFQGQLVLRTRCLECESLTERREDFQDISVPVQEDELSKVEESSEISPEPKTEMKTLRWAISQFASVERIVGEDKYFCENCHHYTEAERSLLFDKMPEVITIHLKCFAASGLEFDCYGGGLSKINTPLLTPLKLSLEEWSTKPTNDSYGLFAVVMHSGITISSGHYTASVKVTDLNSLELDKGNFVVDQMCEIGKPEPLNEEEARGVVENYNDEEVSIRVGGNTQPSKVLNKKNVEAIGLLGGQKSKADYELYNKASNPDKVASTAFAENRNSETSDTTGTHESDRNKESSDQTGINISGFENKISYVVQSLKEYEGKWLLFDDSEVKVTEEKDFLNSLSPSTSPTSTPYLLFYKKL
Sequence (Q8TAF3 whole entry): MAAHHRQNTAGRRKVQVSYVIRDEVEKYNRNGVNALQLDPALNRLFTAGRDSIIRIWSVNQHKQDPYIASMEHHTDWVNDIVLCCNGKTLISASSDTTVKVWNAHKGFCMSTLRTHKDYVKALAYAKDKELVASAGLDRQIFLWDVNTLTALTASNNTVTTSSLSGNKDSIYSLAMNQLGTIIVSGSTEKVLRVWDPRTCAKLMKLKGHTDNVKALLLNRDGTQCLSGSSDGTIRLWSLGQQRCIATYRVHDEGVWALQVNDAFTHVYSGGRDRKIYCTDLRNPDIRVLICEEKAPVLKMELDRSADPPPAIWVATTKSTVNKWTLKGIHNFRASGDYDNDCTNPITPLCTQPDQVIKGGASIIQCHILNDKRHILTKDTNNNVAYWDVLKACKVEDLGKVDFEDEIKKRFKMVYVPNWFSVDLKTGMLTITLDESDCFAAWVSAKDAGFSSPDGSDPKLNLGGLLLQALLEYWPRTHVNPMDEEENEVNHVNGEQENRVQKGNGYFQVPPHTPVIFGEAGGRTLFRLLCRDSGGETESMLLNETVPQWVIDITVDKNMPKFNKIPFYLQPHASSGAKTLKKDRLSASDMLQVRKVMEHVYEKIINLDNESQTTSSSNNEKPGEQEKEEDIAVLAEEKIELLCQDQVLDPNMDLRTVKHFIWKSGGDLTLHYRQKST
Experiment: Inhibition of human USP1/UAF1 using ubiquitin-rhodamine110 substrate by fluorescence assay
Measured Quantity: IC50

Here are 4 compounds together with their reported answers.
c1cncc(-c2ccc(CNc3nc(N4CCCC4)nc4ccccc34)cc2)c1 : Not Active
FC(F)(F)c1ccc(-c2nc(NCc3ccc(-c4cccnc4)cc3)c3ccccc3n2)cc1 : Not Active
c1cncc(-c2ccc(CNc3nc(N4CCOCC4)nc4ccccc34)cc2)c1 : Not Active
c1cncc(-c2ccc(CNc3nc(C4CCCC4)nc4ccccc34)cc2)c1 : Not Active

Let us examine a further case.
stdin: Given the entry FC(F)(F)c1cccc(-c2nc(NCc3ccc(-c4cccnc4)cc3)c3ccccc3n2)c1 , report its measured IC50.
stdout: Not Active
